method-summary: DNA intercalators displacing acridine orange, dose response, artefact control for KSHV LANA DNA-binding inhibitor project, biochemical, fluorescence polarization, cherry-picked samples, set 2 (AID 504727)
stated-conditions: Acridine orange-DNA displacement; series mostly up to 35 µM
Calls of active or inactive are those of the source.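 Rule for the calls: active = fitted half-maximal concentration AC50 at or below ten times the highest valid tested dose, with signal falling as DNA is displaced (actives reach about 34 µM in these data); inconclusive = flat fit at moderate signal loss, or poor fit quality; inactive = the rest, including signal rising instead of falling.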
Hi there, use one of these labels in your reply, thanks! active, inactive

[ask] Each compound tested received a call. Report the one for O=C1CCN2C=Nc3cccc4ccc1c2c34 .
[reply] active

[ask] Any idea what this test logged for COc1cc(SC)ccc1C(=O)OCC(=O)N1CCN(C(C)=O)CC1 ?
[reply] inactive

[ask] Record lookup: outcome of this test for COc1ccc(/C=C/c2cc(C(F)(F)F)[nH]c(=O)n2)cc1OC ?
[reply] inactive

[ask] // param item: COC(=O)C1=C(N)OC2=C(C(=O)CCC2)C1c1cccs1 (centres undefined) ; yields the recorded call
[reply] inactive

[ask] Returns: the outcome recorded for CCN(CC(=O)Nc1c(F)cccc1F)C(=O)CCCc1cccs1 in this assay.
[reply] inactive

###

method-summary: DNA intercalators displacing acridine orange, dose response, artefact control for KSHV LANA DNA-binding inhibitor project, biochemical, fluorescence polarization, cherry-picked samples, set 2 (AID 504727)
stated-conditions: Acridine orange-DNA displacement; series mostly up to 35 µM
Active and inactive are the calls of the source.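 The calls were made as follows: active = fitted half-maximal concentration AC50 at or below ten times the highest valid tested dose, with signal falling as DNA is displaced (actives reach about 34 µM in these data); inconclusive = flat fit at moderate signal loss, or poor fit quality; inactive = the rest, including signal rising instead of falling.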
Pick one and only one: 1.0 for active, 0.0 for inactive

A selection of reference data follows.
Cc1n[nH]c(C)c1N1C(=O)c2cccc3c(N4CCCCCC4)ccc(c23)C1=O; 1.0
CCOC(=O)N1CCN(C(=S)NC(=O)c2cccc(OC)c2)CC1; 0.0
O=c1ccc2c(-c3ccccc3S(=O)(=O)O)c3ccc(O)c(O)c3oc-2c1O; 0.0

[ask] Called result for O=C1C(=Cc2ccco2)CCC1=Cc1ccco1
[reply] 0.0

[ask] GET /call?item= N=C1/C(=C/c2ccc(-c3cccc(C(=O)O)c3)o2)C(=O)N=C2SC(CC(=O)N3CCOCC3)=NN12 returns the recorded outcome of this test.
[reply] 0.0

[ask] Please let me know the test result on file for O=C(N/N=C\c1ccc([N+](=O)[O-])o1)c1cncc(Br)c1 .
[reply] 0.0

[ask] Write down the call the test reported for this compound. Item: Cc1cc[n+](-c2[nH]c(=O)sc2/C=N/N=C(\[O-])c2ccccc2)cc1C
[reply] 1.0

[ask] Called result for Clc1ccc(-c2nnc3sc(-c4ccc(Br)o4)nn23)cc1
[reply] 0.0

###

method-summary: DNA intercalators displacing acridine orange, dose response, artefact control for KSHV LANA DNA-binding inhibitor project, biochemical, fluorescence polarization, cherry-picked samples, set 2 (AID 504727)
stated-conditions: Acridine orange-DNA displacement; series mostly up to 35 µM
Calls of active or inactive are those of the source.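 How the source made its calls: active means fitted half-maximal concentration AC50 at or below ten times the highest valid tested dose, with signal falling as DNA is displaced (actives reach about 34 µM in these data); inconclusive means flat fit at moderate signal loss, or poor fit quality; inactive means the rest, including signal rising instead of falling.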
Form entry, call: pick from active, inactive

Observe how each entry below is paired with its result.
O=C1c2ccccc2C(=O)N1Cc1ccc2c(c1)OCO2; inactive
O=C(c1coc(=O)c(Br)c1)N1CCCc2ccccc21; inactive
Cc1nnc(NC(=O)CN2C(=O)NC3(CCCC3)C2=O)s1; inactive

[ask] // outcome(item) with item = Cc1c(Cl)cccc1NS(=O)(=O)c1ccc2c(c1)C1C=CCC1C(c1ccc(C(=O)O)cc1)N2 (centres undefined)
[reply] inactive

[ask] What did this assay record as the result for Cc1ccc(N=Nc2c(O)[nH]c3ccc(F)cc23)cc1 ?
[reply] inactive

[ask] Recorded test outcome, item Cc1sc2nnn(CC(=O)N3CCN(C(=O)c4ccco4)CC3)c(=O)c2c1C
[reply] inactive

[ask] Which outcome was assigned to O=C(CCN1C(=O)/C(=C/c2ccco2)SC1=S)Nc1ccc(C(=O)O)c(O)c1 in this test?
[reply] inactive

[ask] Record lookup: outcome of this test for CN(C)/C=N/c1nc2nccc(-c3ccc(Cl)cc3)n2n1 ?
[reply] inactive

[ask] Lab log entry: CCOC(=O)C1=C(O)/C(=C/c2cc(C)n(-c3ccccc3)c2C)N=C1C — outcome as called in the assay?
[reply] inactive

[ask] Please indicate how the test categorized NC(=O)C1=NOC(CNc2ncc(C(F)(F)F)cc2Cl)C1 (centres undefined) .
[reply] inactive

[ask] Called result for Cc1ccc(N2CC(C(=O)Nc3nnc(SCC(=O)Nc4nc(C)cs4)s3)CC2=O)cc1 (centres undefined)
[reply] inactive

###

method-summary: DNA intercalators displacing acridine orange, dose response, artefact control for KSHV LANA DNA-binding inhibitor project, biochemical, fluorescence polarization, cherry-picked samples, set 2 (AID 504727)
stated-conditions: Acridine orange-DNA displacement; series mostly up to 35 µM
The source made the active and inactive calls.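 Rule for the calls: active = fitted half-maximal concentration AC50 at or below ten times the highest valid tested dose, with signal falling as DNA is displaced (actives reach about 34 µM in these data); inconclusive = flat fit at moderate signal loss, or poor fit quality; inactive = the rest, including signal rising instead of falling.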
readout-type: AC50

// solved cases for AC50 follow
CC(Sc1ncccn1)C(=O)NNC(=O)c1cccc(Cl)c1 (configuration not stated); inactive
CCOc1ccc(Nc2ccc(N)c(S(=O)(=O)O)c2)cc1; inactive
Cc1c(C#N)c(=O)c(-[n+]2ccccc2)c([S-])n1-c1ccc(Cl)cc1; inactive
NC(=S)N/N=C/c1cn(CCC(=O)O)nc1-c1cccc(Br)c1; inactive
COc1cc(SC)ccc1C(=O)Nc1nc(C)cs1; inactive
COC(=O)C[n+]1cccc2ccccc21; 8.59 µM (active)

[ask] Entry COc1cccc(/C=N/NC(=O)C(=O)NCc2cccnc2)c1O has what AC50?
[reply] inactive

[ask] Any idea what its AC50 is? The compound is O=C(O)c1ccc2c(c1)[C@@H]1C=CC[C@@H]1[C@H](c1ccccn1)N2
[reply] inactive

[ask] Please look up its AC50: CCOc1ccc(C(C)NC(=O)c2ccccc2OCc2c(C)noc2C)cc1OCC (configuration not stated)
[reply] inactive

[ask] Item under review: Oc1ccc2nnc3c(Br)cnn3c2c1 . Reported AC50?
[reply] 8.34 µM (active)

[ask] Look up AC50 for this compound: CCNc1nc(NC(C)C)nc(NS(=O)(=O)c2ccc(N)cc2)n1
[reply] inactive

[ask] AC50 for O=C(CN1C(=O)NC2(CCCC2)C1=O)Nc1ccccc1-c1ccccc1 ?
[reply] inactive

[ask] Give its AC50 value. Item: O=C1/C(=C/c2ccco2)Oc2c1ccc(O)c2CN1CCCCC1
[reply] 18.9 µM (active)

[ask] AC50 for CCCCNc1c2c3c(cccc3n(C)c1=O)C(=O)c1ccccc1-2 ?
[reply] 2.25 µM (active)

###

method-summary: DNA intercalators displacing acridine orange, dose response, artefact control for KSHV LANA DNA-binding inhibitor project, biochemical, fluorescence polarization, cherry-picked samples, set 2 (AID 504727)
stated-conditions: Acridine orange-DNA displacement; series mostly up to 35 µM
The source made the active and inactive calls.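 The calls were made as follows: active = fitted half-maximal concentration AC50 at or below ten times the highest valid tested dose, with signal falling as DNA is displaced (actives reach about 34 µM in these data); inconclusive = flat fit at moderate signal loss, or poor fit quality; inactive = the rest, including signal rising instead of falling.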
Give your call using only these classes: T = active, F = inactive

Below are worked cases with known answers.
CC1CC(C)CN(C(=O)c2ccc3ncsc3c2)C1 (centres undefined); F
Cc1cc(S(=O)(=O)NC2CCN(Cc3ccccc3)CC2)c(C)cc1Cl; F
Cn1c2ccccc2c2cnn(CC(=O)Nc3cccc(F)c3)c(=O)c21; F
O=C(O)c1cc(N2C(=O)C=CC2=O)cc(N2C(=O)C=CC2=O)c1; F

[ask] Just curious, what result did Cn1c(=O)c(N)c2c3c(c(Br)ccc31)C(=O)c1ccccc1-2 get here?
[reply] T

[ask] How was O=c1[nH]c2c(s1)C=Nc1ccccc1N2 classified in this test?
[reply] T

[ask] Hello, I am checking results. What call was entered for COC(=O)c1c(C)oc2ccc(N(C(C)=O)S(=O)(=O)c3ccccc3)cc12 ?
[reply] F

[ask] Recorded test call requested for Cc1cccc(Nc2nc(N)c([N+](=O)[O-])c(NCc3ccccc3)n2)c1
[reply] F

[ask] So what was the verdict on Cc1ccc(C(=O)O)cc1N1C(=O)c2cccc3c([N+](=O)[O-])ccc(c23)C1=O in this test?
[reply] F

###

method-summary: DNA intercalators displacing acridine orange, dose response, artefact control for KSHV LANA DNA-binding inhibitor project, biochemical, fluorescence polarization, cherry-picked samples, set 2 (AID 504727)
stated-conditions: Acridine orange-DNA displacement; series mostly up to 35 µM
Active and inactive are the calls of the source.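 The calls were made as follows: active = fitted half-maximal concentration AC50 at or below ten times the highest valid tested dose, with signal falling as DNA is displaced (actives reach about 34 µM in these data); inconclusive = flat fit at moderate signal loss, or poor fit quality; inactive = the rest, including signal rising instead of falling.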
Just give me one of these, please: active, inactive

Worked cases, answers included:
Nc1c(/C=C2/C=CC(=O)C(O)=C2)c(=O)nc2sc(CC(=O)N3CCCC3)nn12; inactive
Cc1noc(C)c1C(=O)N1CCN(c2ccc(OCc3ccccc3)cc2)CC1; inactive
N=c1ccn(Cc2ccc(Cl)cc2)cc1; inactive
O=C(Cn1nc(Cc2ccncc2)c2ccccc2c1=O)N1CCN(C(=O)c2ccco2)CC1; active
CC(C)N(Cc1ccccc1)C(=O)Cn1c(=O)cnc2ccccc21; inactive
COc1ccc(C2C(C(=O)c3cccs3)=C(O)C(=O)N2c2nncs2)cc1 (configuration not stated); active
Cc1cc2nc3c(=O)n(C4CCCCC4)c(=O)[nH]c3nc2cc1N; active
Cc1cc(/C=N/Nc2ccc([N+](=O)[O-])cn2)c(C)n1-c1cccc(C(=O)O)c1; inactive
CC(C)(C)OC(=O)C[C@@H]1C/C=C\C[C@H](CC(=O)N(CCO)Cc2ccccc2)C(=O)N[C@@H](c2ccccc2)COC1=O; inactive
Cc1cccc(COc2ccc(/C=N/NC(=O)c3nnn(-c4nonc4N)c3COc3ccc(F)cc3)cc2)c1; inactive

[ask] Hi team, can someone confirm the assay call for COCCN(C(=O)CN1CCCc2ccccc21)c1c(N)n(Cc2ccccc2)c(=O)[nH]c1=O ?
[reply] inactive

[ask] Identify the outcome logged in this assay for the molecule shown: NNC(=O)C1C(O)CCC2CN3CCc4c([nH]c5ccccc45)C3CC21 (configuration not stated)
[reply] inactive

Numbers sourced from PubChem BioAssay AID504727.
